Reference for the values: ChEMBL document CHEMBL2203159

Give measured %max for each item. Keep answers brief.
Molecular target: Peroxisome proliferator-activated receptor alpha (Homo sapiens) (UniProt Q07869)
Sequence (Q07869 whole entry, the tested form may be a part): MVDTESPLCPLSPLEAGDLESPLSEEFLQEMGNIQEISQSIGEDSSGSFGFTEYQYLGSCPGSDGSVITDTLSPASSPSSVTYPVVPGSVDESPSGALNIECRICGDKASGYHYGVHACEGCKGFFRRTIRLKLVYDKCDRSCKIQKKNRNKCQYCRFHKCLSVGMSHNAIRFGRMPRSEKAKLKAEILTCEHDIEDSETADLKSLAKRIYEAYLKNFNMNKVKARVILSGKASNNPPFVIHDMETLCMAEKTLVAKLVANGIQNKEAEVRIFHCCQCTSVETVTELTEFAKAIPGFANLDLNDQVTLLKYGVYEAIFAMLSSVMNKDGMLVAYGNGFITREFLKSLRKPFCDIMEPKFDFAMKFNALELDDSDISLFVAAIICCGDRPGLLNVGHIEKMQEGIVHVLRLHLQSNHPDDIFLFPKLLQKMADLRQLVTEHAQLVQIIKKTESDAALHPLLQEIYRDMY
Assay: Transactivation of human GAL4-fused PPARalpha ligand binding domain transfected in HEK293 cells at 150 uM after 18 hrs by dual luciferase reporter gene assay relative to clofibric acid
Assay type: cell-based
Give the figure together with its unit, number first.

Prompt line: What value of %max has been reported for the following compound? CC(C)(Oc1ccc(CCOc2ccc(/N=N/c3ccccc3)cc2)cc1)C(=O)O
Response line: 158%

Prompt line: What value of %max has been reported for the following compound? CC(C)(Oc1ccc(CCCO)cc1)C(=O)O
Response line: 181%

Prompt line: What value of %max has been reported for the following compound? CC(C)(Oc1ccc(CCO)cc1)C(=O)O
Response line: 94%

Prompt line: What value of %max has been reported for the following compound? CC(C)(Oc1ccc(CCOc2nc3ccccc3s2)cc1)C(=O)O
Response line: 169%

Prompt line: What value of %max has been reported for the following compound? CC(C)(Oc1ccc(CCCOc2ccc(/C=C/c3ccccc3)cc2)cc1)C(=O)O
Response line: 125%

* * *

Target: Peroxisome proliferator-activated receptor gamma (Homo sapiens)
Sequence (P37231 whole entry): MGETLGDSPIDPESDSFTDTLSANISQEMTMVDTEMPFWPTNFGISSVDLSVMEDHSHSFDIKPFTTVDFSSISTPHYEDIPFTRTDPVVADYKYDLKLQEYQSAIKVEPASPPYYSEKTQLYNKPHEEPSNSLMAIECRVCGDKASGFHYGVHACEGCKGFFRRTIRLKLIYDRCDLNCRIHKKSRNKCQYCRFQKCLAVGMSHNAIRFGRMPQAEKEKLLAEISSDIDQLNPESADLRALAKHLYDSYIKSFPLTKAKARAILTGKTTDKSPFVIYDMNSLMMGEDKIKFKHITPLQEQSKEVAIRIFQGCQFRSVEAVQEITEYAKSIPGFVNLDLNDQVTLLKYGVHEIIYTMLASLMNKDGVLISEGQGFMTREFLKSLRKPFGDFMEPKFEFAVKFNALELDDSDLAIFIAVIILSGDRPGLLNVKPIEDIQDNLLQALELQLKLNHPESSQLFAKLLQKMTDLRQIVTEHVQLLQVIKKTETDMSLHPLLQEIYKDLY
Test: Transactivation of human GAL4-fused PPARgamma ligand binding domain transfected in HEK293 cells after 18 hrs by dual luciferase reporter gene assay
Type: cell-based
Settings: read-out: EC50
Give measured pEC50 for each item. Keep answers brief.
Keep in mind that pEC50 stands for -log10 of concentration in molar terms.

Prompt line: Kindly state the measured pEC50 obtained for CC(C)(Oc1ccc(COc2ccc(/C=C/c3ccccc3)cc2)cc1)C(=O)O with Peroxisome proliferator-activated receptor gamma (Homo sapiens).
Response line: 5.22

Prompt line: Kindly state the measured pEC50 obtained for CC(C)(Oc1ccc(CCCOc2ccc(/C=C/c3ccccc3)cc2)cc1)C(=O)O with Peroxisome proliferator-activated receptor gamma (Homo sapiens).
Response line: 6.10

Prompt line: Kindly state the measured pEC50 obtained for CC(C)(Oc1ccc(CCOc2ccc(Oc3ccccc3)cc2)cc1)C(=O)O with Peroxisome proliferator-activated receptor gamma (Homo sapiens).
Response line: 5.16

Prompt line: Kindly state the measured pEC50 obtained for CC(C)(Oc1ccc(COc2nc3ccccc3s2)cc1)C(=O)O with Peroxisome proliferator-activated receptor gamma (Homo sapiens).
Response line: 4.49

Prompt line: Kindly state the measured pEC50 obtained for CC(C)(Oc1ccc(CCCOc2ccc(C(=O)c3ccccc3)cc2)cc1)C(=O)O with Peroxisome proliferator-activated receptor gamma (Homo sapiens).
Response line: 5.24

Prompt line: Kindly state the measured pEC50 obtained for CC(C)(Oc1ccc(CCOc2ccc(/C=C/c3ccccc3)cc2)cc1)C(=O)O with Peroxisome proliferator-activated receptor gamma (Homo sapiens).
Response line: 4.90

Prompt line: Kindly state the measured pEC50 obtained for CC(C)(Oc1ccc(CO)cc1)C(=O)O with Peroxisome proliferator-activated receptor gamma (Homo sapiens).
Response line: 4.52

Prompt line: Kindly state the measured pEC50 obtained for CC(C)(Oc1ccc(CCOc2ccc(C(=O)/C=C/c3ccccc3)cc2)cc1)C(=O)O with Peroxisome proliferator-activated receptor gamma (Homo sapiens).
Response line: 5.23

Prompt line: Kindly state the measured pEC50 obtained for CC(C)(Oc1ccc(CCCOc2ccc(C(=O)/C=C/c3ccccc3)cc2)cc1)C(=O)O with Peroxisome proliferator-activated receptor gamma (Homo sapiens).
Response line: 6.10
